Assign mass density to each entry below.
MEASUREMENT SETUP: 298.15 K; 101.33 kPa; Liquid
Give the number; kg/m3 is assumed, so skip it.

In plain terms, CN(C)C=O [dimethylformamide] has a documented mass density of 943.85

In plain terms, CCOCC [diethyl ether] has a documented mass density of 707.79

In plain terms, CC(C)OC(C)C [diisopropyl ether] has a documented mass density of 718.51

In plain terms, CCCCCOCCCCC [dipentyl ether] has a documented mass density of 778.96

In plain terms, CCCOCCC [dipropyl ether] has a documented mass density of 741.94

====

MEASUREMENT SETUP: 313.15 K; 101.33 kPa; Liquid
METRIC NAME: mass density (kg/m3)
Give the number; kg/m3 is assumed, so skip it.

In plain terms, CN(C)C=O [dimethylformamide] has a documented mass density of 930.98

In plain terms, CCCOCCC [dipropyl ether] has a documented mass density of 727.87

In plain terms, CCCCCOCCCCC [dipentyl ether] has a documented mass density of 768.65

In plain terms, CC(C)OC(C)C [diisopropyl ether] has a documented mass density of 702.59

====

MEASUREMENT SETUP: 328.15 K; 101.33 kPa; Liquid
METRIC NAME: mass density (kg/m3)
Give the number; kg/m3 is assumed, so skip it.

In plain terms, CCCOCCC [dipropyl ether] has a documented mass density of 713.73

In plain terms, CN(C)C=O [dimethylformamide] has a documented mass density of 915.07

In plain terms, CC(C)OC(C)C [diisopropyl ether] has a documented mass density of 686.2

In plain terms, CCCCCOCCCCC [dipentyl ether] has a documented mass density of 756.32

The origin of these recorded values is the NIST ThermoML archive (doi:10.1016/j.jct.2005.01.002).
